testedSystem: 3-hydroxyacyl-CoA dehydrogenase type-2 (Homo sapiens) (UniProt Q99714)
Sequence (Q99714 whole entry, looked up): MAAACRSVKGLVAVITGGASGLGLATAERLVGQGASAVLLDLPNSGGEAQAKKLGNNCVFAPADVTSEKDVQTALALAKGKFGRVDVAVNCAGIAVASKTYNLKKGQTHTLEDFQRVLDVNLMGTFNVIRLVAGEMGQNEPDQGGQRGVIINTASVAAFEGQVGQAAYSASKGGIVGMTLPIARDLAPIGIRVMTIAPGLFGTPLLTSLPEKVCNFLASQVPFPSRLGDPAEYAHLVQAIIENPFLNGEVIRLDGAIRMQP
Sequence (Q99714 whole entry, looked up): as above
testDescription: qHTS Assay for Inhibitors of HADH2 (Hydroxyacyl-Coenzyme A Dehydrogenase, Type II); note: nearly all actives have a fitted effect of over 60% in size; note: potency is the fitted concentration of half-maximal effect
experimentalConditions: recombinant HADH2, NADH fluorescence, beta-hydroxybutyryl-CoA; series mostly up to 57.1 µM
The whole screen tested about 73,000 compounds, of which about 2,500 (3.4%) were called active. About 7% were inconclusive and are not listed. Many of the other results were omitted from the sample, so actives are more common in it than they were.
measurementLabel: Potency

Observe how each entry below is paired with its result.
[[record]]
molecule = "Cc1c(O)c(Br)c(C)c(O)c1Br (tested in a mixture with another compound)"
observed = "0.398 µM (active)"

[[record]]
molecule = "Cc1ccc(-n2ncc3c2ncn2nc(-c4ccco4)nc32)c(C)c1"
observed = "inactive"

[[record]]
molecule = "O=C(Nc1nc(-c2ccc3c(c2)OCO3)cs1)c1ccncc1"
observed = "inactive"

[[record]]
molecule = "C=C(C)C1CC=C(C)C(O)C1 (configuration not stated)"
observed = "inactive"

[[record]]
molecule = "c1cnn(-c2cc(N3CCOCC3)ncn2)c1"
observed = "inactive"


## Input Query (molecule): Cc1cc(C)cc(N)c1 ; field requested: Potency
## Output inactive

## Input Query (molecule): Cc1cccc(-n2ncc3c(N4CCc5ccccc54)ncnc32)c1 ; field requested: Potency
## Output 3.16 µM (active)

## Input Query (molecule): Cc1ccc(-n2ncc3c(N4CCN(c5ccc(F)cc5)CC4)ncnc32)c(C)c1 ; field requested: Potency
## Output inactive

## Input Query (molecule): CN(C)CCCNC(=O)c1ccc2[nH]c3ccccc3c2c1 ; field requested: Potency
## Output 25.1 µM (active)

## Input Query (molecule): O=C(CN1CCOCC1)Nc1cc(Cl)ccc1Cl ; field requested: Potency
## Output inactive

## Input Query (molecule): CCCCC/C=C/C=C/C=O ; field requested: Potency
## Output inactive

## Input Query (molecule): COc1ccc(N2CCN(C(=O)CSc3ncnc4c3cnn4-c3ccc(OC)cc3)CC2)cc1 ; field requested: Potency
## Output inactive
